Target: Huntingtin (Homo sapiens)
Assay: mutant huntingtin-calmodulin interaction inhibitors – biochemical, AlphaScreen, primary screen (AID 1671202);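 note: 0% = both proteins with DMSO and 100% = one protein alone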
Conditions: AlphaScreen His-mHTT/GST-CaM binding, luminescence; at 15 µM, hits give high values
Out of some 190,000 compounds screened, about 6,900 (3.6%) were called active. The entries come from a sample that favours actives as a whole.
For each entry below, report its inhibition value.
All answers are understood in %, so give the number only.

INPUT: Param readout = inhibition; param system = Huntingtin (Homo sapiens); param query = CCCC(=O)NC(c1ccccc1OC)c1cc([N+](=O)[O-])c2cccnc2c1O (stereo not given) ; response: value
OUTPUT: 100

INPUT: Recorded inhibition for COc1cccc(C=C2Oc3cc(OCC(=O)NN)ccc3C2=O)c1OC with Huntingtin (Homo sapiens), please?
OUTPUT: 4.1

INPUT: Recall the recorded inhibition for O=C(CC1CCCCC1)N1CCC(COc2ccc(C(=O)N3CCCCC3)cc2)CC1 with Huntingtin (Homo sapiens) and state it.
OUTPUT: -1.76

INPUT: Give Huntingtin (Homo sapiens) inhibition for O=[N+]([O-])c1ccc(SCCO)c2ncccc12
OUTPUT: 6

INPUT: Notebook: pull reported inhibition for Huntingtin (Homo sapiens), entry O=c1[nH]c2c(c(=O)[nH]1)C(c1cc([N+](=O)[O-])ccc1N1CCOCC1)O2 (stereo not given)
OUTPUT: 3

INPUT: What inhibition appears in the records for this compound with Huntingtin (Homo sapiens)? Cc1cc(S(=O)(=O)NCC2(O)CCOCC2)c(Cl)cc1Cl
OUTPUT: -11.3

INPUT: # returns recorded inhibition (system: Huntingtin (Homo sapiens)) for Cc1cc(C(=O)Nc2ccccc2)nc2ccnn12
OUTPUT: -10.8

INPUT: Which inhibition is reported with Huntingtin (Homo sapiens) for this entry: Cc1ccc(N2C(=O)CSC2c2ccccc2[N+](=O)[O-])cc1Cl (stereo not given) ?
OUTPUT: 16

INPUT: Write down the reported inhibition of CC(NC(=O)CN1CCOCC1)C1CC1 (stereo not given) , test system: Huntingtin (Homo sapiens).
OUTPUT: -8.9

INPUT: Form field: inhibition recorded for O=c1[nH]c(/C=C/c2cccc(Br)c2)nc2ccccc12 with Huntingtin (Homo sapiens) (enter value)
OUTPUT: -5.1

INPUT: Write down the reported inhibition of CCCC(=O)NC(Nc1ccccc1OC)C(Cl)(Cl)Cl (stereo not given) , test system: Huntingtin (Homo sapiens).
OUTPUT: -3

INPUT: Record lookup: for Huntingtin (Homo sapiens), what inhibition belongs to CCCN1CCn2cc(C(=O)N3CCN(c4ccccc4)CC3)nc2C1 ?
OUTPUT: 63

INPUT: Which inhibition is reported with Huntingtin (Homo sapiens) for this entry: O=C(CSc1nnc(NC(=O)c2ccccc2F)s1)Nc1ccc(Br)cc1 ?
OUTPUT: 1.2

INPUT: Value wanted: inhibition (Huntingtin (Homo sapiens)) of entry COc1ccc(C(=O)N2CCCCC2CCN2CCCC2)cn1 (stereo not given)
OUTPUT: 6.78

INPUT: Requested read-out inhibition, target or system Huntingtin (Homo sapiens), entry CC(=O)N1CCc2cc(Br)cc(S(=O)(=O)NCCc3ccccc3)c21
OUTPUT: 20

INPUT: What reported inhibition corresponds to CCCN1CCn2cc(C(=O)NCc3cccc(OC)c3)nc2C1 on Huntingtin (Homo sapiens)?
OUTPUT: 4.35

INPUT: Query for Huntingtin (Homo sapiens): what inhibition does the record show for Cc1cccc(NC(=O)c2ccc(F)c(S(=O)(=O)N3CCc4ccccc43)c2)c1 ?
OUTPUT: -8

INPUT: Look up inhibition with Huntingtin (Homo sapiens) for this compound: O=C1CSC(c2ccccc2[N+](=O)[O-])N1c1ccc(Oc2ccccc2)cc1 (stereo not given)
OUTPUT: 59

INPUT: Any idea what inhibition came out for CC1(C)c2ccccc2N2CC(=O)NC21/C=C/c1cccc(Br)c1 (stereo not given) on Huntingtin (Homo sapiens)?
OUTPUT: 100

INPUT: State its inhibition on Huntingtin (Homo sapiens): COc1cc(CN2CCN(Cc3cc(OC)c(OC)c(OC)c3)CC2)cc(OC)c1
OUTPUT: -4.6
